Test system: ECV304
Experiment: Tube-like-structure (TLS) formation of ECV304 cells on Matrigel
Type: cell-based, human
Conditions: 2 µg/ml, 24 - 48 hours, mean of five fields
Parameter Measured: % reduction in total tube area at concentration 2 µg/ml (%)
Number in %, nothing else.

Consider the following illustrative entries.
CC(C)C1CCC2(C(=O)O)CCC3(C)C(CCC4C5(C)CCC(OC(=O)c6ccc(F)cc6F)C(C)(C)C5CCC43C)C12 (stereo not shown): 21
CC(C)C1CCC2(C(=O)O)CCC3(C)C(CCC4C5(C)CCC(=NOCc6ccc([N+](=O)[O-])cc6)C(C)(C)C5CCC43C)C12 (stereo not shown): 7.5
CC(C)C1CCC2(C(=O)O)CCC3(C)C(CCC4C5(C)CCC(N=Cc6ccc(F)c(F)c6)C(C)(C)C5CCC43C)C12 (stereo not shown): 13.4

Okay, now this compound:
Value of measured % reduction in total tube area at concentration 2 µg/ml for the entry CC(C)C1CCC2(C(=O)O)CCC3(C)C(CCC4C5(C)CCC(N=Cc6ccc(F)cc6F)C(C)(C)C5CCC43C)C12 (stereo not shown) : 16.7

----------
Entries and their Lung L132 (ED50)
Test system: L132
Assay: Cytotoxicity assay for tumor cells, lung L132
Format: cell-based
Details: concentration causing 50% cytotoxicity
Number in µg/mL, nothing else.

Consider the following illustrative entries.
CC(C)C1CCC2(C(=O)O)CCC3(C)C(CCC4C5(C)CCC(OC(=O)c6ccccc6C(F)(F)F)C(C)(C)C5CCC43C)C12 (stereo not drawn) [MJ943-RS]: 4
C=C(C)C1CCC2(C(=O)O)CCC3(C)C(CCC4C5(C)CCC(=NNc6ccccc6)C(C)(C)C5CCC43C)C12 (stereo not drawn) [MJ353-RS]: 4.5

Okay, now this compound:
Value of measured Lung L132 (ED50) for the entry CC(C)C1CCC2(C(=O)O)CCC3(C)C(CCC4C5(C)CCC(=NOCc6ccc([N+](=O)[O-])cc6)C(C)(C)C5CCC43C)C12 (stereo not drawn) [MJ1098-RS] : 1.3

----------
Test system: PA-1
Test: Cytotoxicity assay for tumor cells, ovary PA-1
Format: cell-based
Details: concentration causing 50% cytotoxicity
Entries and their Ovary PA-1 (ED50)
Number in µg/mL, nothing else.

Consider the following illustrative entries.
CC(C)C1CCC2(C(=O)O)CCC3(C)C(CCC4C5(C)CCC(=NOCc6ccc([N+](=O)[O-])cc6)C(C)(C)C5CCC43C)C12 (centres unmarked): 1.6
CC(C)C1CCC2(C(=O)O)CCC3(C)C(CCC4C5(C)CCC(N=Cc6ccc(F)c(F)c6)C(C)(C)C5CCC43C)C12 (centres unmarked): 1.3
CC(C)C1CCC2(C(=O)O)CCC3(C)C(CCC4C5(C)CCC(OC(=O)c6ccc(F)cc6F)C(C)(C)C5CCC43C)C12 (centres unmarked): 1.6
C=C(C)C1CCC2(C(=O)O)CCC3(C)C(CCC4C5(C)CCC(=NNc6ccccc6)C(C)(C)C5CCC43C)C12 (centres unmarked): 5

Okay, now this molecule:
Value of measured Ovary PA-1 (ED50) for the entry CC(C)C1CCC2(C(=O)O)CCC3(C)C(CCC4C5(C)CCC(N=Cc6ccc(F)cc6F)C(C)(C)C5CCC43C)C12 (centres unmarked) : 1.3

----------
Entries and their % reduction in total tube area at concentration 4 µg/ml
Test system: ECV304
Assay: Tube-like-structure (TLS) formation of ECV304 cells on Matrigel
Type: cell-based, human
Details: 4 µg/ml, 24 - 48 hours, mean of five fields
Number in %, nothing else.

Consider the following illustrative entries.
CC(C)C1CCC2(C(=O)O)CCC3(C)C(CCC4C5(C)CCC(N=Cc6ccc(F)cc6F)C(C)(C)C5CCC43C)C12 (stereo not shown): 46.7
CC(C)C1CCC2(C(=O)O)CCC3(C)C(CCC4C5(C)CCC(OC(=O)c6ccc(F)cc6F)C(C)(C)C5CCC43C)C12 (stereo not shown): 21.7
CC(C)C1CCC2(C(=O)O)CCC3(C)C(CCC4C5(C)CCC(N=Cc6ccc(F)c(F)c6)C(C)(C)C5CCC43C)C12 (stereo not shown): 33.4

Item: CC(C)C1CCC2(C(=O)O)CCC3(C)C(CCC4C5(C)CCC(=NOCc6ccc([N+](=O)[O-])cc6)C(C)(C)C5CCC43C)C12 (stereo not shown) | System: ECV304 | % reduction in total tube area at concentration 4 µg/ml: 10

----------
Tested on: L132
Test: Cytotoxicity assay for tumor cells, lung L132
Format: cell-based
Conditions: concentration causing 50% cytotoxicity
Parameter Measured: Lung L132 (ED50) (mg/L)
Number in mg/L, nothing else.

C=C(C)C1CCC2(C(=O)O)CCC3(C)C(CCC4C5(C)CCC(OC(=O)Cc6cc(OC)ccc6OC)C(C)(C)C5CCC43C)C12 (stereo not shown): 4.6
CC(C)C1CCC2(C(=O)O)CCC3(C)C(CCC4C5(C)CCC(N=Cc6ccc(F)c(F)c6)C(C)(C)C5CCC43C)C12 (stereo not shown): 2.5

Value of measured Lung L132 (ED50) for the entry CC(C)C1CCC2(C(=O)O)CCC3(C)C(CCC4C5(C)CCC(OC(=O)c6cc(F)cc(F)c6)C(C)(C)C5CCC43C)C12 (stereo not shown) : 1.2

----------
Tested on: PA-1
Assay: Cytotoxicity assay for tumor cells, ovary PA-1
Assay type: cell-based
Settings: concentration causing 50% cytotoxicity
Entries and their Ovary PA-1 (ED50)

Consider the following illustrative entries.
CC(C)C1CCC2(C(=O)O)CCC3(C)C(CCC4C5(C)CCC(OC(=O)c6ccccc6C(F)(F)F)C(C)(C)C5CCC43C)C12 (stereo not drawn): > 4 µg/mL
C=C(C)C1CCC2(C(=O)O)CCC3(C)C(CCC4C5(C)CCC(OC(=O)c6cccc(C(F)(F)F)c6)C(C)(C)C5CCC43C)C12 (stereo not drawn): > 4 µg/mL

Okay, now this molecule:
Value of measured Ovary PA-1 (ED50) for the entry C=C(C)C1CCC2(C(=O)O)CCC3(C)C(CCC4C5(C)CCC(OC(=O)c6ccc(CCCCC)cc6)C(C)(C)C5CCC43C)C12 (stereo not drawn) : > 4 µg/mL
